Test system: MS2 coat protein
Experiment: apparent KD of MS2 coat protein; designed switch direction (-1 OFF switch, 1 ON switch): -1; higher = weaker reporter binding
Details: Eterna round: R95; input ligand: FMN 200 uM
attributeMeasured: apparent KD of MS2 coat protein (nM)

[[record]]
polymersequence = "GGAAUACAUGAGGAUCACCCAUGUAAGGAUAUGCUGAAUAUCACGGAAUAAACGUGCAGCAGAAGGUACAAAGG [Mat - Mod of my Eli Mod D46] (puzzle: Exclusion 1)"
obsvalue = 103

[[record]]
polymersequence = "AGUACUAUGCGAGCUGACUUGCGUAGUGCAGCAGGUGGAACAUGAGGAUCACCCAUGUCCUCAUUUGCUCGUCUUAU [Mat - Sensor v3 - Turn-off var 2 - D4] (puzzle: Sensor v3, turn-off variant 2)"
obsvalue = 30.2

[[record]]
polymersequence = "AGUACUAACACGAGAGUGUUAGUACAAUAAGCUUGUGUUACAUGAGGAUCACCCAUGUCCUCAUAAGCUCGUCUUAA [Mat - Sensor v3 - Turn-off var 2 - D58] (puzzle: Sensor v3, turn-off variant 2)"
obsvalue = 41.3

